Target: human muscarinic M1 receptor (Homo sapiens)
Sequence (P11229 whole entry): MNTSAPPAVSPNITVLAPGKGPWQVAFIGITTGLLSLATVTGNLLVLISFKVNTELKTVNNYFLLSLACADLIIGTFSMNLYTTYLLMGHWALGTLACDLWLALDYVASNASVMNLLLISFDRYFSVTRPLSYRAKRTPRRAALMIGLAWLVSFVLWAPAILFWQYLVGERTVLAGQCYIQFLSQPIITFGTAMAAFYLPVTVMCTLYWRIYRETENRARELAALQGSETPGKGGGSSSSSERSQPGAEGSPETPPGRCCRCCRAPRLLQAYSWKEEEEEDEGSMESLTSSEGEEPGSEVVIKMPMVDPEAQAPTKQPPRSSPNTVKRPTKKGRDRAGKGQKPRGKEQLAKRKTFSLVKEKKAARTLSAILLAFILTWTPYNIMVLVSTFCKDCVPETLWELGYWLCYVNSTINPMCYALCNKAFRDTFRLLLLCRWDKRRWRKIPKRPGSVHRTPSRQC
Experiment: Alphascreen Surefire phospho-ERK1/2 functional assay, M1
Format: cell-based
Conditions: CHO, read-out: % Emax cf. ACh, M1
measurement_label: Emax (%)

O=C1CCON1CCC1CCN(CCCN2C(=O)CCc3ccccc32)CC1 :: 73
O=C1COc2cc(F)ccc2N1CCCN1CCC(CCCCOC2=NOCC2)CC1 :: 102
O=C1CCc2ccccc2N1CCCN1CCC(CCCCOC2=NOCC2)CC1 :: 98
O=C1CCc2ccccc2N1CCCN1CCC(CCOC2=NOCC2)CC1 :: 92
O=C1CCc2ccccc2N1CCCN1[C@@H]2CC[C@H]1C[C@@H](OCCOC1=NOCC1)C2 :: 62

Reference for the values: patent US12215099B2
